MEASURED ON: human NaV1.8 (Homo sapiens, UniProt Q9Y5Y9)
Construct: The following NaV1.8 recombinant cell line was used for recordings: HEK-NaV1.8 (NM 006514.1)
Sequence (Q9Y5Y9 whole entry): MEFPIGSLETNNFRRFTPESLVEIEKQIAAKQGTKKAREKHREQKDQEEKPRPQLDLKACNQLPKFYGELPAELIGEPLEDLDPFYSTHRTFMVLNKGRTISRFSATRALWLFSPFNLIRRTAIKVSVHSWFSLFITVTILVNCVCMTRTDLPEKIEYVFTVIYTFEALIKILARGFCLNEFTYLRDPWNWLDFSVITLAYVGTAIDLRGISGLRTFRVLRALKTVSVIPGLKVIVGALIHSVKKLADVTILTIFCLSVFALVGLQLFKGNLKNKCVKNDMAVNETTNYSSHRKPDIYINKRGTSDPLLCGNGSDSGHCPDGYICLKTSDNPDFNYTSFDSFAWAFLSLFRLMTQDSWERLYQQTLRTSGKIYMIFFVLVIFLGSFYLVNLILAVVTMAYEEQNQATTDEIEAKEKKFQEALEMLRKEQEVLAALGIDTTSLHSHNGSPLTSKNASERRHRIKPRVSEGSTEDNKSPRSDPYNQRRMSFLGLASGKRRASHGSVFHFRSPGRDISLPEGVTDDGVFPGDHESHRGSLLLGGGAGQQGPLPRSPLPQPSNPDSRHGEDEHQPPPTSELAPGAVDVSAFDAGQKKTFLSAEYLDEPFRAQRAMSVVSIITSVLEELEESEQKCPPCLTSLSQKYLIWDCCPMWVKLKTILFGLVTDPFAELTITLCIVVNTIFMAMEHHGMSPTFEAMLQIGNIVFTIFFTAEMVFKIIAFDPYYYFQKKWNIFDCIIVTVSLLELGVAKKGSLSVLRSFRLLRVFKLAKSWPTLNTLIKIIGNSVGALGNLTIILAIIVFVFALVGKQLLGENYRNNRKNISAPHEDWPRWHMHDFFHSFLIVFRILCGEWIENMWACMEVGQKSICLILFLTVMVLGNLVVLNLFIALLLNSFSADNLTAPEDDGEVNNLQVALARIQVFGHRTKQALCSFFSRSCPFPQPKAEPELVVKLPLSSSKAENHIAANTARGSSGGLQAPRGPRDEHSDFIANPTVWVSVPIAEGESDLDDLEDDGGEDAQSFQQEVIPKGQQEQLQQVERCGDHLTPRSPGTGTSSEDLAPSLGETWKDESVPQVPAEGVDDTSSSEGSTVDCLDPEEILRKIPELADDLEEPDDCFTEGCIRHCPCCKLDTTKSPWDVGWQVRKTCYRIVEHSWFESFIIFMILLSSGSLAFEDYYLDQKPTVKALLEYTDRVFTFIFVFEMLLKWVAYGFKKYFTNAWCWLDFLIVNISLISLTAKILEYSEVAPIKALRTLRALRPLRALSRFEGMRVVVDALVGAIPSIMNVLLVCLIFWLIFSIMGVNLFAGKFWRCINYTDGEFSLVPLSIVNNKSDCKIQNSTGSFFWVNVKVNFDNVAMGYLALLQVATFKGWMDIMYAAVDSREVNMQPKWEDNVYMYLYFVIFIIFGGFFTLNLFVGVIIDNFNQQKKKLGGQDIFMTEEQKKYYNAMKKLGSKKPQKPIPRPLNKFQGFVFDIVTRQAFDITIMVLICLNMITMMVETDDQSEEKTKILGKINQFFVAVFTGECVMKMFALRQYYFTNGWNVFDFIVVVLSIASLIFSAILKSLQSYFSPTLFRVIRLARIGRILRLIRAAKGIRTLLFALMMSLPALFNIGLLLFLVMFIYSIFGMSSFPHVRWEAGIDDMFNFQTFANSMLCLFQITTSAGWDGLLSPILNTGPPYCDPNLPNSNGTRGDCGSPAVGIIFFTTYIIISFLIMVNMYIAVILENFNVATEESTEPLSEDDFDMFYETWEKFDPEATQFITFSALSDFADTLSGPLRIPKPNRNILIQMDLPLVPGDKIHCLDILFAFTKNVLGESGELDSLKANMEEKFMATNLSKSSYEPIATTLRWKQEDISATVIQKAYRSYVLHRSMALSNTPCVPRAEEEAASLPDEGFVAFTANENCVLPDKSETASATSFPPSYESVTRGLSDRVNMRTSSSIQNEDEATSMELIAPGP
Sequence (Q9NY72 23-215 partner): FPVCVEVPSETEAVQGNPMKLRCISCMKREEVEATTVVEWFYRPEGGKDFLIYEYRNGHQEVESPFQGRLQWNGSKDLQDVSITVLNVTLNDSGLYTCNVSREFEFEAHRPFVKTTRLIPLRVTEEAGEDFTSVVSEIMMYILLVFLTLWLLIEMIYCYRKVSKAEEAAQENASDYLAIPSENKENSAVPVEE
PROCEDURE TEXT: Electrophysiology: automated whole-cell voltage-clamp (patch clamp, Qube384) recordings of sodium currents in HEK-NaV1.8 cells
MEASUREMENT SETUP: potency data either taken from inactivated or resting state, read-out: Potency category (human NaV1.8 IC50)
Listed here: items and their measured IC50.

| MOLECULE | IC50 |
| --- | --- |
| CS(=O)(=O)n1cc(NC(=O)c2c(C(F)(F)F)cnn2CC2CCCCC2)c2cccnc21 | ≤ 100 nM |
| COCCOC[C@@H]1CCCC[C@@H]1Cn1nc(C(C)(F)F)c(C)c1C(=O)Nc1ccnc(C(N)=O)c1 (relative stereo) | ≤ 100 nM |
| Cc1c(C(C)(F)F)nn(CC2C[C@H]2C(F)(F)F)c1C(=O)Nc1ccnc(C(N)=O)c1 (single isomer, unassigned) [SC-204a] | ≤ 100 nM |

# IC50 of CCc1nn(CC2CCC(F)(F)C2)c(C(=O)Nc2ccnc(C(N)=O)c2)c1C(F)(F)F (stereo not drawn) = ≤ 100 nM

# IC50 of CS(=O)(=O)c1cc(NC(=O)c2c(C(F)(F)F)c(C3CC3)nn2CC2CC(F)(F)C2)ccn1 = ≤ 100 nM

# IC50 of Cc1c(C(F)F)nn(CC2CCC(F)(F)CC2)c1C(=O)Nc1ccnc(C(N)=O)c1 = ≤ 100 nM

# IC50 of Cc1c(C(C)(F)F)nn(C[C@@]2(C)CCCCO2)c1C(=O)Nc1ccnc(S(N)(=O)=O)c1 (single isomer, unassigned) [SC-312b] = 100 to 1000 nM

# IC50 of CCOc1nn(CC2CCC(F)(F)C2)c(C(=O)Nc2ccnc(C(N)=O)c2)c1C(F)(F)F (stereo not drawn) = ≤ 100 nM

# IC50 of CS(=O)(=O)c1cc(NC(=O)c2c(CC(F)(F)F)c(C3CC3)nn2CC2CCOCC2)ccn1 = 1000 to 10000 nM

# IC50 of NC(=O)c1cc(NC(=O)c2c(C(F)(F)F)c(C3CC3)nn2CC2CCCCO2)ccn1 (single isomer, unassigned) [SC-258b] = ≤ 100 nM

# IC50 of CS(=O)(=O)c1cc(NC(=O)c2c(C(F)(F)F)c(C3CC3)nn2C[C@@H]2CCO[C@H]2C(F)(F)F)ccn1 (racemic) [SC-150c] = ≤ 100 nM

# IC50 of NS(=O)(=O)c1cccc(NC(=O)c2c(C(F)(F)F)c(C3CC3)nn2CC2CC(F)(F)C2)c1 = ≤ 100 nM

# IC50 of NC(=O)c1ccc(NC(=O)c2c(C(F)(F)F)cnn2CC2CCC(F)(F)CC2)cc1F = 1000 to 10000 nM

# IC50 of Cc1c(C(C)(F)F)nn(CC2(C)CCC(F)(F)C2)c1C(=O)Nc1ccnc(S(N)(=O)=O)c1 (single isomer, unassigned) [SC-212a] = ≤ 100 nM

# IC50 of COC1CC(Cn2nc(C3CC3)c(C(F)(F)F)c2C(=O)Nc2ccnc(C(N)=O)c2)C1 (single isomer, unassigned) [SC-281a] = 100 to 1000 nM
